variants and their reported self-cleavage kobs at 40 uM GlcN6P
B1: glmS ribozyme (parent)
chain: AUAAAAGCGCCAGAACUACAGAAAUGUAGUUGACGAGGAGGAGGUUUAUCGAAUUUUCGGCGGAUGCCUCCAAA

# Variants of: B1
# measurementNotes: self-cleavage kobs at 40 uM GlcN6P; higher = faster cleavage; RNA array
# conditions: with glucosamine-6-phosphate
This sample holds only a part of the variants without activity.
measuredEndpoint: self-cleavage kobs at 40 uM GlcN6P (s⁻¹)

constructSequence	qualifierSymbol	value
AUAAAAGCGCCAGAUCUACAGAAAUGUAGUUGACGGGGAGGAGGUUUAUCGAAUUUUCGGCGGAUGCCUCCAAA	<	1e-05
AUAAAAGCGCCAGAACUACAGAAAUGUAGUUGACGAGGAGGAGGUUUAUCGAAUUUUCGGCGGAUAACUCCAAA	=	0.000216
AUAAAAGCGCCCGAACUACAGAAAUGUAAUUGACGAGGAGGAGGUUUAUCGAAUUUUCGGCGGAUGCCUCCAAA	=	0.000188
